- procedure_summary: Cytotoxicity against HEK293 cells assessed as viable cells at 100 uM after 48 hrs by aqueous one solution cell proliferation assay relative to control
- Format: cell-based
- condition_summary: human, read-out: Activity
observable: viability at 48 h, 100 µM

For each listed entry, give its viability at 48 h, 100 µM.
1. CN(CCOc1ccc(C[C@H](Nc2ccccc2C(=O)c2ccccc2)C(=O)O)cc1)c1ccccn1
2. CN(CCOc1ccc(CC2SC(=O)NC2=O)cc1)c1ccccn1 (centres undefined)
3. COc1cccc(-c2coc3cc(O)ccc3c2=O)c1
4. O=c1c(-c2ccc3c(c2)OCO3)coc2cc(O)ccc12

33%
46%
> 60%
> 60%

* * *

Give measured EC50 for each item. Keep answers brief.
- target_under_test: Peroxisome proliferator-activated receptor alpha (Homo sapiens, UniProt Q07869)
- Sequence (Q07869 whole entry): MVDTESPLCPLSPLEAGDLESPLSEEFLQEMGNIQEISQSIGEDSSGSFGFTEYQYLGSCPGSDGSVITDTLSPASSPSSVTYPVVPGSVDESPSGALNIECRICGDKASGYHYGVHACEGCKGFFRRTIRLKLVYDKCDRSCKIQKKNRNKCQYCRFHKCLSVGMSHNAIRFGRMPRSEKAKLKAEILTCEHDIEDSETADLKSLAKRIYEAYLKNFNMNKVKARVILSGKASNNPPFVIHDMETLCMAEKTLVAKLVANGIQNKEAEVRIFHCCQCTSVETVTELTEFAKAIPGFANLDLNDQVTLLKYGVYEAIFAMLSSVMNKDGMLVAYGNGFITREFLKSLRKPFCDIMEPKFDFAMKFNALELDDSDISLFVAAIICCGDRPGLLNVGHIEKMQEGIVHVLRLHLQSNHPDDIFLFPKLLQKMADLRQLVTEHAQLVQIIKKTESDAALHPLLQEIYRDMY
- procedure_summary: Agonist activity at human PPARalpha assessed as luciferase activity by transactivation assay

Some entries whose results are on file:
>  <mol_smiles>
O=c1c(-c2ccc(F)cc2)coc2cc(O)ccc12

>  <meas_value>
33.1 µM

$$$$
>  <mol_smiles>
COc1cccc(-c2coc3cc(O)ccc3c2=O)c1

>  <meas_value>
23.1 µM

$$$$
>  <mol_smiles>
COc1cc(OC)cc(-c2coc3cc(O)ccc3c2=O)c1

>  <meas_value>
24.6 µM

$$$$

Turning now to a further compound:
Could you tell me which EC50 is on file for `O=c1c(-c2ccc3c(c2)OCO3)coc2cc(O)ccc12` ? 8.9 µM

* * *

Answer each item with its documented fold change (FC).
- target_under_test: Peroxisome proliferator-activated receptor gamma (Homo sapiens) (UniProt P37231)
- Sequence (P37231 whole entry): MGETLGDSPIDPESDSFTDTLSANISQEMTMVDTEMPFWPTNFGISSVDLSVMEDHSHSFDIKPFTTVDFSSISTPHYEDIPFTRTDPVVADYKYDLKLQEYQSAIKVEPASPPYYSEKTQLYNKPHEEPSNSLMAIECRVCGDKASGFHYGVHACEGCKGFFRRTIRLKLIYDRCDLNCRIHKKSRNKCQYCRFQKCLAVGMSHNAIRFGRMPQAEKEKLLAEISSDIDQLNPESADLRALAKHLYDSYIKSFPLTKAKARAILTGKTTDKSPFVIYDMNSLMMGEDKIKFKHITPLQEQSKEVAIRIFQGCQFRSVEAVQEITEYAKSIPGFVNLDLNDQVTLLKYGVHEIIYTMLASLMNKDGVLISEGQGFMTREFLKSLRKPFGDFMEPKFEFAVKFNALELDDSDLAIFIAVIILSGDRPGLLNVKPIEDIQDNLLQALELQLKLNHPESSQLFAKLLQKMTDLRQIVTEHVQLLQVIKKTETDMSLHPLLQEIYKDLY
- procedure_summary: Agonist activity at human PPARgamma expressed in HEK293 cells co-transfected with PPRE assessed as beta-galactosidase signal at 25 uM after 48 hrs by reporter gene assay relative to control
- Type: functional, cell-based
Give bare numbers.

A selection of reference data follows.
>  <compound>
COc1ccc(-c2c(-c3ccc(O)cc3O)n[nH]c2C)cc1

>  <observable>
fold change (FC)

>  <meas_value>
2.2

$$$$
>  <compound>
O=c1cc(-c2ccc(O)cc2)oc2cc(O)cc(O)c12

>  <observable>
fold change (FC)

>  <meas_value>
5.4

$$$$
>  <compound>
O=c1cc(-c2ccc(O)cc2)oc2ccc(O)cc12

>  <observable>
fold change (FC)

>  <meas_value>
5

$$$$
>  <compound>
O=c1cc(-c2ccccc2)oc2cc(O)cc(O)c12

>  <observable>
fold change (FC)

>  <meas_value>
4

$$$$

Hi there! I need fold change (FC) for each item below, if you can.
1. O=C(/C=C/c1ccc(O)cc1)c1ccc(O)cc1O
2. O=c1c(-c2cccc(OC(F)(F)F)c2)coc2cc(O)ccc12
3. O=c1cc(-c2ccc(O)cc2)oc2cc(O)ccc12
4. O=c1c(-c2ccc(O)cc2)coc2cc(O)c(O)cc12
5. O=c1c(-c2ccc(O)cc2)coc2cc(O)ccc12
6. COc1ccc(-c2oc3cc(O)ccc3c(=O)c2O)cc1OC

[1.3, 2.1, 5, 4.4, 9.6, 2.4]

Okay, here is my list. What is fold change (FC) for each of these?
1. COc1ccc(-c2cc(=O)c3c(O)cc(O)cc3o2)cc1O
2. CCc1cc2c(=O)c(-c3ccc4c(c3)OCO4)c(C)oc2cc1OCC(=O)O
3. O=c1c(-c2cc(O)cc(O)c2)coc2cc(O)ccc12
4. O=c1c(-c2cc(F)c(F)c(F)c2)coc2cc(O)ccc12
5. O=c1c(-c2ccc3c(c2)OCO3)coc2cc(OC3CCCCO3)ccc12 (configuration not stated)

1: 7.3; 2: 2.3; 3: 7.4; 4: 1.4; 5: 9.4

For the 2 compounds below, give their fold change (FC) values.
1. Oc1ccc(-c2n[nH]cc2-c2ccc(F)cc2)c(O)c1
2. COc1c(F)cc(F)cc1-c1coc2cc(O)ccc2c1=O

1: 1.7; 2: 7.5
